# System: SK-OV-3 ovarian
# experimentSummary: NCI tumour cell line growth inhibition, 48 h
measurementType: TGI (µM)
Please reply with the bare figure in µM and do not write the unit itself.

[ask] What does the record list as TGI for C[As](C)SC1OCC(O)C(O)C1O (configuration not stated) ?
[reply] 4.47

[ask] What does the record list as TGI for CCCCCC[C@H]1C(=O)O[C@H](C)[C@H](NC(=O)c2cccc(NC=O)c2OC)C(=O)O[C@@H](C)[C@@H]1OC(=O)CCC (tested in a mixture with another compound) ?
[reply] 66.1

[ask] What does the record list as TGI for COC(=O)/C=C\C(C#N)(C#N)N=Cc1ccc(OC)cc1 ?
[reply] 31

###

# Test system: HCT-15 colon
# experimentSummary: NCI tumour cell line growth inhibition, 48 h
measurementType: TGI

[ask] What does the record list as TGI for C#C[C@]1(O)CC[C@H]2[C@@H]3CC=C4c5nc(N)sc5CC[C@]4(C)[C@H]3CC[C@@]21C ?
[reply] 17.3 µM

[ask] What does the record list as TGI for CCCCCCCCC(O)c1ccc(/C=C\C(O)CCCC(=O)O)s1 (centres undefined) ?
[reply] > 100 µM

[ask] What does the record list as TGI for C[C@@H]1CC[C@H]2[C@H](C)C(OC3O[C@@H]4O[C@@]5(C)CC[C@H]6[C@H](C)CC[C@@H]([C@@H]3C)[C@@]46O5)O[C@@H]3O[C@@]4(C)CC[C@@H]1[C@]32O4 (some centres undefined) ?
[reply] > 100 µM

[ask] What does the record list as TGI for CN1CCC(C(O)(c2ccccc2)c2ccc(Br)cc2)CC1 (centres undefined) ?
[reply] > 100 µM

###

# Test system: UO-31 renal
# experimentSummary: NCI tumour cell line growth inhibition, 48 h
measurementType: TGI

[ask] What does the record list as TGI for CC1(C)OC[C@@H]([C@@]2(COC(c3ccccc3)(c3ccccc3)c3ccccc3)CC=CC(=O)O2)O1 ?
[reply] > 100 µM

[ask] What does the record list as TGI for CC1(C)OC(=O)C(=C2CCC(C(=O)Nc3cccc(C(F)(F)F)c3)N2)C(=O)O1 (stereo not drawn) ?
[reply] > 100 µM

[ask] What does the record list as TGI for Cc1cc(NS(=O)(=O)c2ccc(N=[N+]([O-])c3ccc(S(=O)(=O)Nc4cc(C)on4)cc3)cc2)no1 ?
[reply] > 100 µM

[ask] What does the record list as TGI for CCOC1Oc2ccc(C)cc2C(=O)/C1=C\Nc1ccc(S(N)(=O)=O)cc1 (stereo not drawn) ?
[reply] > 50 µM

[ask] What does the record list as TGI for O=[N+]([O-])c1cccc(Nc2nc(Cl)nc(Cl)n2)c1 ?
[reply] > 100 µM

[ask] What does the record list as TGI for CCOC(=O)/C(=C\c1ccc2ccccc2c1)P(=O)(OCC)OCC ?
[reply] 4.4 µM

[ask] What does the record list as TGI for Cc1[nH]c(-c2ccccc2)c2nc(N(C)C)oc(=O)c12 ?
[reply] > 100 µM

[ask] What does the record list as TGI for Cc1ccc(C(=O)Oc2ccccc2)cc1N=NN(C)C ?
[reply] > 100 µM

###

# Test system: UACC-257 melanoma
# experimentSummary: NCI tumour cell line growth inhibition, 48 h
measurementType: TGI

[ask] Give TGI (UACC-257 melanoma) of the following compound: COc1cc([C@@H]2c3cc4c(cc3[C@@H](Nc3ccc(Cl)cc3C(=O)c3ccccc3)[C@H]3COC(=O)[C@H]23)OCO4)cc(OC)c1OC
[reply] > 100 µM

[ask] Give TGI (UACC-257 melanoma) of the following compound: O=C1OC(=O)C([Se]c2ccccc2)=C1[Se]c1ccccc1
[reply] > 100 µM

[ask] Give TGI (UACC-257 melanoma) of the following compound: Cc1[nH]c(-c2ccccc2)c2nc(N(C)C)oc(=O)c12
[reply] > 100 µM

[ask] Give TGI (UACC-257 melanoma) of the following compound: COc1cc(C2S/C(=C/c3ccccc3)C(=O)N2c2cccc(NC(C)=O)c2)cc(OC)c1OC (stereo unspecified)
[reply] > 100 µM

[ask] Give TGI (UACC-257 melanoma) of the following compound: CN1CCc2ccccc2C(C(=O)c2ccc3c(c2)OCO3)C1=O (stereo unspecified)
[reply] > 100 µM

[ask] Give TGI (UACC-257 melanoma) of the following compound: CCc1ccc2c(c1)N(CCO)C1=C(C(=O)OC1)C2c1cc(OC)c(OC)c(OC)c1 (stereo unspecified)
[reply] > 50 µM
